protocol: folding stability dG unfold from trypsin proteolysis; higher = more stable
Measured folding stability dG unfold by item
Could you give me the number in kcal/mol? Just the number is fine.

Consider the reported folding stability dG unfold for these sequences:
1) SAGGSAGGSAEELLKKLAEELGLEEGDEVTIEVDGKLIKIYFNKDGKIVKVEVYELDPEDLSAGGSAGGSAG [r3_468_TrROS_Hall] = 2.01
2) SAGGMVTTESTKPYLLPNGTKATLTTTTTLYPDGTVVSPTTFTLTFPDGSSTTTTTTTVTTLASGALSAGGS [r16_505_JUSTAS] = 0.836

Please examine the following record next.
According to the records, this sequence SAGGSAGGSAGGSPKRVTMYFIIPFYILIPKEDADGNNEWVIIPITIIIKIEIELPPGDSAGGSAGGSAGGS [r4_326_TrROS] displays folding stability dG unfold of 4.5

---

protocol: folding stability dG unfold from chymotrypsin proteolysis; higher = more stable
// label = yes (1) if folding stability dG unfold is not less than 1 kcal/mol, otherwise no (0)

Use the examples below as a reference point.
1) SAGSAVVRDFDFEVPPGYGVLDVTVTEGPGPPVWEGTVTFQAGGAPETLTVTIPVDPATGARSVAMTAGSAG [r5_136_JUSTAS] = no (0)
2) SAGGSAGGSASMDTVVEVGPEILSTGLPIEKVTYDPNTGKTYIETPDKLYVIDSDGNITVDASAGGSAGGSA [r18_445_JUSTAS] = yes (1)
3) SAGGGMSTYTITINIVIDPKEKKVPKPPLKDPFKLPPLKTIPITITAETSDPAVAAALEKAVKEALGLSAGG [r13_35_JUSTAS] = yes (1)

Problem: Does MIIIPNATPEEVKKIILDAAKKGKEIEILIEVDPNLGPKVIKALKDLPYVKKVEPLPDGSIKVYIDKKNLKS [r1_324_TrMRF] have a reported folding stability dG unfold of at least 1 kcal/mol?
Result: yes (1)

Problem: Does folding stability dG unfold meet or surpass 1 kcal/mol for SAGGSAGGANDPEMPKPKRVEITIPPDEEIRNPNGKEMPVEQAREYAEYLADRYGIDVEITISPSAGGSAGG [r6_162_TrROS] ?
Result: no (0)

Problem: folding stability dG unfold >= 1 kcal/mol for SAGGSAGGMVTSSVSALPDGSYRLTITYPDGTVLTFEFDSEEEVAALLAELAEALPADAAVPLASAGGSAGG [r6_464_JUSTAS] ?
Result: yes (1)

Problem: Can SAGMVEVYEEDKRLLVRVTLESPDPSTITEETVRELLERLGLPVEELEISPTALPNGSYTVTAEVVVLPSAG [r5_922_JUSTAS] be said to have folding stability dG unfold at or above 1 kcal/mol?
Result: yes (1)

Problem: Could you please find out whether SAGGNFVVPFKDPEQVKEIREAAEKGEEIEITPPDGKKFTFKVESVEVDPESGRVVIKLPSGKEFPLSAGGS [r16_254_TrMRF] has folding stability dG unfold that meets 1 kcal/mol or exceeds it?
Result: no (0)

Problem: Test whether the sequence SAGGSAGGNLTLPPDNIKRIWHVGDGHWLIKMDDNVLMINPGNGKIQTVKKEDADKLPPGDPFFSAGGSAGG [r6_890_TrROS] records folding stability dG unfold of 1 kcal/mol or higher.
Result: no (0)

Problem: Hi team, for SAGGSAGGSAGGKIKDIDVQQMPDGWYWVEIEIPDPNGEEVKITIMFPPGHSVDDALDQLSAGGSAGGSAGG [r7_54_TrROS] , is the recorded folding stability dG unfold at or above 1 kcal/mol?
Result: yes (1)

Problem: I'd appreciate it if you could say whether SKPPSDPGSIEFSFPDSSNVTVTIPVPLPPNTTVSISLSDGKSYTVPGGTTFTFTLPPGKPFTVTVNIRSSA [r9_79_JUSTAS] has folding stability dG unfold at least equal to 1 kcal/mol.
Result: yes (1)
